Values were extracted from patent US20130072404A1.

ASSAYED_TARGET: UniProtKB P00722
ASSAY_PROCEDURE: Standard microplate assay (Example 1 comparison values)
Type: biochemical
Parameters: purchased Sigma-Aldrich Co
TEST_SETTINGS: read-out: IC50 of PETG measured in a standard microplate assay
Sequence (P00722 2-1024 limits assumed): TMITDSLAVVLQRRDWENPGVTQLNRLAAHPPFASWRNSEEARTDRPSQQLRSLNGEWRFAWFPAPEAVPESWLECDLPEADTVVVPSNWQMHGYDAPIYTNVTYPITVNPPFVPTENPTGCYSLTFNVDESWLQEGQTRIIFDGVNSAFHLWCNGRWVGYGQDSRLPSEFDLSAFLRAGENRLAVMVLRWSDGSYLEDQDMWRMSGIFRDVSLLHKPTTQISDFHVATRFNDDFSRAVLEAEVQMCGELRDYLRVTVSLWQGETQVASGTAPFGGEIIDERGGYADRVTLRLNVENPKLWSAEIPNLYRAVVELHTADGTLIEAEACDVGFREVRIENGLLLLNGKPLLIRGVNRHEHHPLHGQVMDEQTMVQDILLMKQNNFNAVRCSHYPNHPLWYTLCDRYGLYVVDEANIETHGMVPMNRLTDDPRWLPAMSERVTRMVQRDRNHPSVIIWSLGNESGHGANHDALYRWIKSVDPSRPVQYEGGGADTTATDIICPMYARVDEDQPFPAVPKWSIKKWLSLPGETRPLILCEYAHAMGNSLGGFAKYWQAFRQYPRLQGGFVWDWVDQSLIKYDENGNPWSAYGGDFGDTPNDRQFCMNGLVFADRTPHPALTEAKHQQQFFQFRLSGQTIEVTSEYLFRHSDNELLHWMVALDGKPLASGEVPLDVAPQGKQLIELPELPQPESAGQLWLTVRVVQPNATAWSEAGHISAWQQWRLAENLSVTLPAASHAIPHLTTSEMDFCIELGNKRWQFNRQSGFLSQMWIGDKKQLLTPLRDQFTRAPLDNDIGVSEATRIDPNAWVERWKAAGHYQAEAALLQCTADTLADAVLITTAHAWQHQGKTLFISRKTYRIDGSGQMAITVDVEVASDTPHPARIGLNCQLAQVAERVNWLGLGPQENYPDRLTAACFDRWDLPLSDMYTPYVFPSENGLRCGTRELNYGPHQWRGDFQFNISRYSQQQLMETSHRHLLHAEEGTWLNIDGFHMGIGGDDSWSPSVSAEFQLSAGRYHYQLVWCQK
PARAMETER: pIC50
// pIC50: -log10(molar conc.)

*Q* Provide value of pIC50 for this record tested with UniProtKB P00722: OC[C@H]1O[C@@H](SCCc2ccccc2)[C@H](O)[C@@H](O)[C@H]1O [PETG, phenylethyl β-D-thiogalactopyranoside]
*A* 5.84

---

ASSAYED_TARGET: β-galactosidase (Escherichia coli, UniProt P00722)
ASSAY_PROCEDURE: High-resolution dose-response screening of β-galactosidase inhibition in droplets (Example 2), FDG substrate
Assay type: biochemical, E. coli
Parameters: purchased Grade VIII
TEST_SETTINGS: mean IC50, low (24 μM) injected PETG, 4-parameter Hill fit
Sequence (P00722 2-1024): as the sequence (P00722 2-1024 limits assumed) above
PARAMETER: pIC50
// pIC50: -log10(molar conc.)

*Q* May I ask what pIC50 has been recorded for OC[C@H]1O[C@@H](SCCc2ccccc2)[C@H](O)[C@@H](O)[C@H]1O [PETG, phenylethyl β-D-thiogalactopyranoside] ?
*A* 5.70
